Assay Details: M. tuberculosis H37Rv growth inhibitors, H37Rv strain (AID 1626);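 note: bacteria incubated seven days before Alamar blue readout; 0% = bacteria only wells and 100% = bacteria with antibiotic wells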
Measurement Conditions: active compounds read high, concentration not given here
Hit rate of the full screen: of about 220,000 compounds, about 2,000 (0.91%) were called active. Another 2% or so got no clear call; they are omitted. The list is a sample of the results. Entries with a potency or affinity are not part of this list.
Kindly state inhibition for each of the entries shown.

Entry COc1cccc(OCc2nnc(SCC(=O)OC3CCCCC3)n2C)c1 needs its inhibition filled in; supply it.
6.41% (inactive)

Entry CCN(C(=O)COC(=O)c1cc(S(=O)(=O)Nc2c(C)n(C)n(-c3ccccc3)c2=O)ccc1Cl)C1CCCCC1 needs its inhibition filled in; supply it.
-3.86% (inactive)

Entry Cc1cc(=O)oc2cc(Oc3ncccn3)ccc12 needs its inhibition filled in; supply it.
-2.26% (inactive)

Entry CC(=O)Nc1cccc(Oc2ncnc3scc(-c4ccccc4)c23)c1 needs its inhibition filled in; supply it.
1.97% (inactive)

Entry Cn1cccc1C(=O)NC(=O)COC(=O)CNC(=O)c1ccc(Cl)cc1Cl needs its inhibition filled in; supply it.
-13% (inactive)

Entry CCn1c(COc2cccc3ccccc23)nnc1SCC(N)=O needs its inhibition filled in; supply it.
-13.4% (inactive)

Entry CCC1(C)Cc2c(sc3nnn(CC(=O)Nc4ccccc4)c(=O)c23)CO1 (stereo unspecified) needs its inhibition filled in; supply it.
-3.81% (inactive)

Entry CC(=O)Nc1cccc(Oc2ncnc3scc(-c4ccc(C)cc4)c23)c1 needs its inhibition filled in; supply it.
17.3% (inactive)

Entry COCCNC(=O)C(c1ccncc1)N(C(=O)c1sc(C)nc1C)c1cccc(C)c1 (stereo unspecified) needs its inhibition filled in; supply it.
-4.16% (inactive)

Entry Cc1cc(NC(=O)CCl)on1 needs its inhibition filled in; supply it.
0.735% (inactive)

Entry O=[N+]([O-])c1ccc(N=Cc2ccc(Br)c([N+](=O)[O-])c2)cc1 needs its inhibition filled in; supply it.
8.65% (inactive)

* * *

Kindly state inhibition for each of the entries shown.
Assay Details: M. tuberculosis H37Rv growth inhibitors, H37Rv strain (AID 1626);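 note: bacteria incubated seven days before Alamar blue readout; 0% = bacteria only wells and 100% = bacteria with antibiotic wells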
Measurement Conditions: active compounds read high, concentration not given here
Out of some 220,000 compounds screened, about 2,000 (0.91%) were called active. Roughly 2% stayed inconclusive and do not appear here. Only a sample is shown. Potency and affinity values are given separately.
# value in %; strip the unit string

Entry O=C(NCCCO)NC12CC3CC(CC(C3)C1)C2 needs its inhibition filled in; supply it.
1.78

Entry COc1ccc(-n2c(C)cc(C(=O)CCl)c2C)cc1 needs its inhibition filled in; supply it.
-6.35

Entry COc1cccc(-c2nc(-c3ccc(C(=O)O)cc3)no2)c1 needs its inhibition filled in; supply it.
-12.7

Entry COc1ccc(CCNC(=O)NC23CC4CC(CC(C4)C2)C3)cc1OC needs its inhibition filled in; supply it.
-2.6

Entry O=C(CCCCCNC(=S)Nc1ccccc1)C[N+](=O)[O-] needs its inhibition filled in; supply it.
-1.95

Entry NS(=O)(=O)c1ccc(CCNC(=O)NC23CC4CC(CC(C4)C2)C3)cc1 needs its inhibition filled in; supply it.
3.03

Entry CC(=O)c1c(C(C)=O)c(C)n(-c2cccc([N+](=O)[O-])c2)c1C needs its inhibition filled in; supply it.
-7.09

Entry CCN(CC)S(=O)(=O)c1ccc2c(c1)nc(CCC(=O)Nc1ccccc1Cc1ccccc1)n2CC needs its inhibition filled in; supply it.
-0.79

Entry O=Nc1c(O)[nH]c2ccc(Cl)cc12 needs its inhibition filled in; supply it.
-4.64

Entry O=C(NCCC1=CCCCC1)NC1CCCCC1 needs its inhibition filled in; supply it.
-1.65

Entry Cn1ncc2c(NCc3cccc(C(F)(F)F)c3)c(C(=O)O)cnc21 needs its inhibition filled in; supply it.
-1.6

* * *

Kindly state inhibition for each of the entries shown.
Assay Details: M. tuberculosis H37Rv growth inhibitors, H37Rv strain (AID 1626);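 note: bacteria incubated seven days before Alamar blue readout; 0% = bacteria only wells and 100% = bacteria with antibiotic wells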
Measurement Conditions: active compounds read high, concentration not given here
Screen size: about 220,000 compounds; about 2,000 (0.91%) were called active. Roughly 2% stayed inconclusive and do not appear here. The list is a sample of the results. Entries with a potency or affinity are not part of this list.
# value in %; strip the unit string

Entry COc1cc(/C=N/NC(=O)CCc2n[nH]c(=O)[nH]c2=O)cc(OC)c1OC needs its inhibition filled in; supply it.
-3.85

Entry COc1ccc(-c2cnc(N)nc2-c2ccc(OC)cc2O)cc1 needs its inhibition filled in; supply it.
-8.12

Entry Brc1ccc(-c2csc(-c3ccncc3)n2)cc1 needs its inhibition filled in; supply it.
40.3

Entry Cc1nn2c(NCCCN(C)C)c3c(nc2c1-c1ccccc1)CCCC3 needs its inhibition filled in; supply it.
10.8

Entry COc1ccc(-n2cc(CNCCN3CCOC3=O)c(-c3ccccc3Cl)n2)cc1 needs its inhibition filled in; supply it.
2.78

Entry CC(NC(=O)COC(=O)/C=C/c1cccc(C(F)(F)F)c1)c1ccccc1 (stereo unspecified) needs its inhibition filled in; supply it.
5.27

Entry COC(=O)c1ccc(CNC(=O)COc2ccccc2Br)o1 needs its inhibition filled in; supply it.
5.3

Entry COc1ccc(O)c(C(=O)CC(=O)c2ccc(F)cc2)c1 needs its inhibition filled in; supply it.
-1.1

Entry CC(=O)c1c(C)[nH]c(C(=O)CSc2nnc(-c3ccccc3)n2Cc2ccc3c(c2)OCO3)c1C needs its inhibition filled in; supply it.
0.21

Entry Nc1nnc(CCCCCCCCCCc2nnc(N)s2)s1 needs its inhibition filled in; supply it.
-1.56

Entry Cc1ccc(C(=O)OCC(=O)NCC(F)(F)F)cc1C needs its inhibition filled in; supply it.
9.6

Entry O=C1OC(/C(=C\Nc2ccc(F)cc2F)[N+](=O)[O-])c2ccccc21 (stereo unspecified) needs its inhibition filled in; supply it.
6.38

Entry CC1CC(=O)c2cnc(N3CCOCC3)nc2C1 (stereo unspecified) needs its inhibition filled in; supply it.
5.78

Entry Cc1ccc(N/C=C(\C2OC(=O)c3ccccc32)[N+](=O)[O-])c(C)c1 (stereo unspecified) needs its inhibition filled in; supply it.
0.81

Entry Cc1ccc2c(c1)N(CC(=O)N1CCCCC1c1cccnc1)C(=O)CO2 (stereo unspecified) needs its inhibition filled in; supply it.
-4.68

Entry COc1ccc(CCNC(=O)C2CCC(CNc3c(N4CCCC4)c(=O)c3=O)CC2)cc1OC (stereo unspecified) needs its inhibition filled in; supply it.
-2.59

Entry CCCn1c(N)c(C(=O)CN2CCc3ccccc3C2)c(=O)n(C)c1=O needs its inhibition filled in; supply it.
0.315

Entry CCC(C)NC(=O)CSc1nc2ccccc2c(=O)n1CCCC(=O)NCC1CCCO1 (stereo unspecified) needs its inhibition filled in; supply it.
-0.9

Entry Oc1ccc2ccccc2c1CNn1cnnc1 needs its inhibition filled in; supply it.
1.43

Entry Cc1cccc(NC(=O)c2sc(Cl)nc2-c2ccccc2)c1 needs its inhibition filled in; supply it.
8.83

Entry CCN(CC)C(=O)c1cc2c(=O)c3cc(F)ccc3oc2nc1C needs its inhibition filled in; supply it.
1.36

Entry COc1cc2cc(/C=C/C(=O)c3ccco3)c(Cl)nc2cc1OC needs its inhibition filled in; supply it.
-1.16

Entry O=C(CCc1n[nH]c(=O)[nH]c1=O)N1CCCCC1 needs its inhibition filled in; supply it.
-1.04

Entry NC(=O)CSc1nc(-c2ccccc2Cl)ns1 needs its inhibition filled in; supply it.
-12.5

Entry CN(C)C(=O)Oc1c(Cl)cc(Cl)c2cccnc12 needs its inhibition filled in; supply it.
1.37

Entry O=C1CC(C(=O)O)S/C(=N\N=C\c2ccc(Br)cc2)N1 (stereo unspecified) needs its inhibition filled in; supply it.
-6.35

Entry COc1ccc(O)c(C(=O)CC(=O)c2ccccc2)c1 needs its inhibition filled in; supply it.
0.06

Entry CC1=NN(C(C#N)c2cccc([N+](=O)[O-])c2)C(C)(C)C1 (stereo unspecified) needs its inhibition filled in; supply it.
-1.89

Entry CCC(C)[C@H](N)c1nnc(SCC(=O)c2ccc(Cl)cc2)o1 (stereo partly specified) needs its inhibition filled in; supply it.
-1.21

Entry Nc1nnc(SCCCC(=O)c2ccc(Br)cc2)s1 needs its inhibition filled in; supply it.
0.26

Entry Cc1ccc(N/C=C/C(=O)c2ccco2)c(O)c1 needs its inhibition filled in; supply it.
-2.39

Entry C=CCNC(=O)c1onc(CSc2cc(C)cc(C)c2)c1C(=O)NCC=C needs its inhibition filled in; supply it.
4.46

Entry COC1=C(Nc2ccccc2)C(=O)c2ccccc2C1=O needs its inhibition filled in; supply it.
13.5

Entry CN(C)CCCNC(=O)/C(=C\c1ccc(-c2ccc(Br)cc2)o1)NC(=O)c1ccccc1 needs its inhibition filled in; supply it.
6.54

Entry CN(C)CCCNC(=O)/C(=C\c1ccc(-c2cccc([N+](=O)[O-])c2)o1)NC(=O)c1ccccc1 needs its inhibition filled in; supply it.
-5.38

Entry CCOC(=O)c1cccc(NC(=O)/C=C/c2ccc([N+](=O)[O-])cc2)c1 needs its inhibition filled in; supply it.
22.2

Entry COC1=C(Nc2ccc(OC)cc2)C(=O)c2ccccc2C1=O needs its inhibition filled in; supply it.
8.34

Entry Cc1nnc(Sc2cc(C(=O)NCc3ccco3)c3ccccc3n2)s1 needs its inhibition filled in; supply it.
0.09

Entry Cn1c(NCc2c(O)ccc3ccccc23)nc2ccccc21 needs its inhibition filled in; supply it.
6.55

Entry CN(C)CCNC(=O)/C(=C/c1ccc(-c2ccc(Cl)cc2)o1)NC(=O)c1ccccc1 needs its inhibition filled in; supply it.
10.2

Entry Cc1cc(-c2ccc(Cl)cc2Cl)c(C#N)c(=O)[nH]1 needs its inhibition filled in; supply it.
-3.23

Entry CCOc1ccc2nc(Cl)c(/C=C/C(=O)c3ccco3)cc2c1 needs its inhibition filled in; supply it.
21.5

Entry Cc1ccc(-c2csc(-c3ccncc3)n2)cc1 needs its inhibition filled in; supply it.
-6.57

Entry COCCNC(=O)c1cccc(C)c1[N+](=O)[O-] needs its inhibition filled in; supply it.
3.44

Entry CCOC(=O)C1=C(c2ccccc2)NC(=O)NC1c1ccc(OCC#N)c(OC)c1 (stereo unspecified) needs its inhibition filled in; supply it.
2.6

Entry CCn1c(=S)sc2c(=O)n(-c3ccccc3)c(=S)[nH]c21 needs its inhibition filled in; supply it.
-1.81
